Entry source: PubChem BioAssay (NCI)

Test system: HCT-116 colon
Assay: NCI tumour cell line growth inhibition, 48 h; in the data active = GI50 below about 0.43 µM; inactive = the rest
Please answer using one outcome listed in active, inactive

Some solved entries appear below for comparison.
In [3]: df
Out[3]:
                                        mol  class_label
0        Nc1ccccc1C#C/C=C\C#Cc1ccc(Cl)cc1Cl     inactive
1  C[C@]12CC[C@@H]3c4ccc(O)cc4CC[C@H]3[C@@H]1CC[C@@H]2NS(=O)(=O)Cc1ccc(Cl)cc1     inactive
2  CCOC(=O)Oc1c(OC)cc(C(=O)O[C@@H]2C[C@@H]3CN4CCc5c([nH]c6cc(OC)ccc56)[C@H]4C[C@@H]3[C@H](C(=O)OC)[C@H]2OC)cc1OC     inactive

Now for another entry.
Q: For `Cc1ccc2c(=O)c3cccc(CC(=O)O)c3oc2c1C` , which call appears in the assay record?
Result: inactive

====

Tested on: OVCAR-3 ovarian
Assay: NCI tumour cell line growth inhibition, 48 h
Listing: TGI of selected compounds

Below, each entry is followed by its recorded TGI result.
compound	result
CC(=O)OCC1OC(O[C@@H]2c3c(O)c4c(c(O)c3C3=C(NN(c5ccc([N+](=O)[O-])cc5[N+](=O)[O-])[Se]3=O)[C@@]2(C)O)C(=O)c2ccccc2C4=O)C(OC(C)=O)C(OC(C)=O)C1OC(C)=O (stereo not given in full)	0.336 µM
N=C(N)CCCCCCCCC(=N)N	> 100 µM
COC[n+]1cc2cc(OC)c(OC)cc2c2ccc3cc(OC)c(OC)cc3c21	> 100 µM
CC1C[C@]2(C)C(=S)Nc3ccccc3[C@@H]2Nc2ccccc21 (stereo not given in full)	32.1 µM

Q: Report TGI for N#C/C=C1\C=CC(O)C(O)C1OC1OC(CO)C(O)C(O)C1O (stereo not given) please.
Result: > 100 µM

Q: Report TGI for `O=[N+]([O-])/C=C/c1c[nH]c2ccccc12` please.
Result: 33 µM

Q: Report TGI for `O=C(NOCC1CC1)c1ccc(F)c(F)c1Nc1ccc(I)cc1Cl` please.
Result: 7.54 µM

Q: Report TGI for `CC1(C)C(=O)N=C(N)N1C(=O)OCc1ccccc1` please.
Result: > 100 µM

Q: Report TGI for `O=c1cc(-c2cccc(OC(F)(F)F)c2)[nH]c2cc3c(cc12)OCO3` please.
Result: 3.92 µM

Q: Report TGI for O=[N+]([O-])c1cccc2nccc(NCC(O)CO)c12 (stereo not given) please.
Result: 33.7 µM

Q: Report TGI for C=C1C(=O)C23CC1C[C@H](OC(C)=O)C2C1(C)C(OC(C)=O)C[C@H](O)C(C)(C)[C@H]1C(O)[C@@H]3OC(C)=O (stereo not given in full) please.
Result: 19.1 µM

Q: Report TGI for O=C1OC(=O)C2C1C1(c3ccccc3)C(c3ccccc3)=C(c3ccccc3)C2(c2ccccc2)S1=O (stereo not given) please.
Result: > 100 µM

Q: Report TGI for `COc1cc2c(/C=C3/C(=O)Nc4ccccc43)c(Cl)n(Cc3ccccc3[N+](=O)[O-])c2cc1C` please.
Result: 15 µM

Q: Report TGI for `CN(C)CCNc1ccc2c(=O)n(CCN(C)C)c(=O)n3c4ccc(N)cc4c(=O)c1c23` please.
Result: 1.22 µM

====

System: NCI/ADR-RES ovarian
Test: NCI tumour cell line growth inhibition, 48 h
quantity: GI50

Below, each entry is followed by its recorded GI50 result.
>>> print(df.to_string())
                                        mol    result
0         O=[N+]([O-])/C=C/c1c[nH]c2ccccc12   18.4 µM
1  CC[N+](CC)(CC)CCCn1c2c(c3ccccc3c1=O)C(=O)c1ccccc1-2    6.5 µM
2  C/C=C(\C)C(=O)O[C@H]1C=CC(=O)O[C@H]1CNC(=O)[C@H](C)O   26.2 µM
3  COc1ccc2[nH]c(Cl)c(/C=C3/C(=O)N(C)c4ccccc43)c2c1  > 100 µM
4  Cc1ccc2c(N)c(C(=O)N[C@H]3CCc4cc(N5CC6CCC(C5)N6)ccc4C3)sc2n1  0.798 µM

Q: Report GI50 for `C[C@]12CC[C@@H]3c4ccc(O)cc4CC[C@H]3[C@@H]1CC[C@@H]2NS(=O)(=O)Cc1ccc(Cl)cc1` please.
Result: 2.69 µM

Q: Report GI50 for `O=C1C=Cc2ccccc2/C1=C/c1[nH]c(=O)[nH]c1O` please.
Result: 20.3 µM

====

Tested on: NCI-H460 lung
Assay: NCI tumour cell line growth inhibition, 48 h
Listing: TGI of selected compounds
Provide the reading as a plain figure in µM.

                                        mol  quantity  numeric_result
0  O=c1cc(-c2cccc(OC(F)(F)F)c2)[nH]c2cc3c(cc12)OCO3       TGI             1.1

Consider the record given below.
Q: Report TGI for `C=C1CC[C@@H]2C(C)(C)CCC[C@@]2(C)[C@@H]1Cc1cc(O)ccc1O` please.
Result: 33.4

====

Tested on: COLO 205 colon
Experiment: NCI tumour cell line growth inhibition, 48 h
Listing: TGI of selected molecules

Below, each entry is followed by its recorded TGI result.
>>> df
                                   molecule    result
0  COC(=O)CC1C(=O)OCc2c1cc1n(c2=O)Cc2c-1nc1ccccc1c2OC (stereo not given)  > 100 µM
1  [C-]#[O+].[C-]#[O+].[Ir].[O-]c1cccc2cccnc12  > 100 µM
2  Cc1ccccc1N(C)S(=O)(=O)c1ccccc1[N+](=O)[O-]  > 100 µM
3  C/C=C(\C)C(=O)O[C@H]1C=CC(=O)O[C@H]1CNC(=O)[C@H](C)O   29.3 µM

Q: Report TGI for CC(C)(O)C1OCC(C2CCC3(C)C4=CCC5C(C)(C)C(O)CCC5(C)C4CCC23C)CC1O (stereo not given) please.
Result: 31.5 µM

Q: Report TGI for `N=C(N)CCCCCCCCC(=N)N` please.
Result: 20.9 µM

Q: Report TGI for `COc1ccc2[nH]c(Cl)c(/C=C3/C(=O)N(C)c4ccccc43)c2c1` please.
Result: > 100 µM

Q: Report TGI for CC1N(C)C(=O)OC12CCN(CCCC(=O)c1ccc(F)cc1)CC2 (stereo not given) please.
Result: > 100 µM

Q: Report TGI for NC1=NC(OCC2(CO)CCC2)C=C(NCC2(CO)CCC2)N1 (stereo not given) please.
Result: > 100 µM

Q: Report TGI for `CCCCCc1c2nc(c(CCCCC)c3ccc([nH]3)c(CCCCC)c3ccc([nH]3)c(CCCCC)c3nc1C=C3)C=C2` please.
Result: > 100 µM

====

Listing: TGI of selected compounds
Tested on: OVCAR-5 ovarian
Test: NCI tumour cell line growth inhibition, 48 h

>>> df
                            compound  experimental_target  quantity    result
0  O=C(Nc1ccc(Cl)cc1)c1cc2ccccc2cc1O      OVCAR-5 ovarian       TGI  > 100 µM

Q: Tell me reported TGI for CC(C)C(N=Cc1ccccc1O)C(=O)O (stereo not drawn) , tested with OVCAR-5 ovarian.
Result: > 100 µM

Q: Tell me reported TGI for `COC(=O)c1c(CC#N)cccc1CC#N` , tested with OVCAR-5 ovarian.
Result: > 100 µM

====

Test system: 786-0 renal
Test: NCI tumour cell line growth inhibition, 48 h
Listing: TGI of selected molecules

Below, each entry is followed by its recorded TGI result.
molecule	TGI
CCN(CC)CCS(=O)c1c2cc(OC)ccc2nc2ccc(OC)cc12 (stereo unspecified)	4.35 µM
COc1cc2[nH]c(-c3cccc(N(C)C)c3)cc(=O)c2cc1OC	> 100 µM
COC(=N)C12C(N)=NC(OC)(OC)C1(C#N)C21C(=O)N(c2ccccc2)N=C1C (stereo unspecified)	> 100 µM

Q: Report TGI for CCCCc1c2c(nc3c1CCC/C3=C\c1ccccc1)C(=O)C(CN(C)C)CC2 (stereo unspecified) please.
Result: 23.9 µM

Q: Report TGI for `COc1ccc2ccc([Se]c3ccc4ccc(OC)cc4c3)cc2c1` please.
Result: > 100 µM

Q: Report TGI for `O=C1CCCC2=C1CC1=C(CCCC1=O)N2c1cccc2ccccc12` please.
Result: > 100 µM

====

Tested on: RPMI-8226 leukemia
Assay: NCI tumour cell line growth inhibition, 48 h
quantity: TGI

compound	result
COc1cc(-c2coc3c(OC)c(OC4OC(CO)C(O)C(O)C4O)c(OC)cc3c2=O)cc(OC)c1C (configuration not stated)	> 100 µM
CCOC(=O)C(=O)Nc1c(N(CC)CC)n2ccccc2nc1=O	> 100 µM
[N-]=[N+]=NC1C(Br)C(=O)NC(=O)N1[C@H]1C[C@H](O)[C@@H](CO)O1 (some centres not stated)	> 100 µM
CCOC(=O)c1c(NC(=O)Nc2ccccc2)c(C(N)=O)c2n1CCCCC2	> 100 µM
O=C1N=C(c2ccccc2)O/C1=C\c1ccccc1	> 100 µM
CC(c1cccc2ccccc12)/[N+]([O-])=C/c1ccccc1 (configuration not stated)	> 100 µM

Q: Report TGI for `CC1=Cc2cc3[n-]c(cc4nc(cc5[n-]c(cc1n2)cc5C)C(C)=C4CCC(=O)O)c(CCC(=O)O)c3C.[Pd+2]` please.
Result: 36.9 µM

Q: Report TGI for `O=C1C(=O)c2ccccc2C(O)=C1C(CCc1ccccc1)C1=C(O)c2ccccc2C(=O)C1=O` please.
Result: > 100 µM
